# test_target: COX-II (Homo sapiens)
# Construct: coding fragment from Cayman Chemical
# Sequence (P35354 18-604): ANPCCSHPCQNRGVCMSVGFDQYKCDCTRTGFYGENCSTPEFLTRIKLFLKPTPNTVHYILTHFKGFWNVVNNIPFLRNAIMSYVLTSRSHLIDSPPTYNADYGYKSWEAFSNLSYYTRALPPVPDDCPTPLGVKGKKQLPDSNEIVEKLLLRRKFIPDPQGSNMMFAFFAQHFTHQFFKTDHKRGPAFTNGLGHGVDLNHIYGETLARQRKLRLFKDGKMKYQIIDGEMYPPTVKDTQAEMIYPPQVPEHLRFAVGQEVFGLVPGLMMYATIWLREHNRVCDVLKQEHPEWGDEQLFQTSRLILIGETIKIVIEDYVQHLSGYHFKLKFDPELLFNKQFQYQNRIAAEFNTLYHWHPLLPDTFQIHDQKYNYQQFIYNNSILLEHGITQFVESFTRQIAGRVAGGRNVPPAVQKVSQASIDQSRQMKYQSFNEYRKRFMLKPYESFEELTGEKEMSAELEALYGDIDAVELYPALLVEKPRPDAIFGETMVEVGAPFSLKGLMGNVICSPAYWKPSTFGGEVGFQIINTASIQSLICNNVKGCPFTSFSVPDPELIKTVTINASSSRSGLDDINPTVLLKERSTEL
# test_name: Human Enzyme Assay, recombinant COX-II (PGE2 ELISA)
endpoint: IC50 (µM)
State the answer as a number, implicitly in µM.

[
  {
    "compound": "CC(C)(C)c1cc(S[C@H]2CCC[C@H]2OCC(=O)O)cc(C(C)(C)C)c1 (single isomer, unassigned) [Example 84]",
    "endpoint": "IC50",
    "recorded_result": 3.7
  },
  {
    "compound": "CC(C)(C)c1cc(S[C@H]2CCC[C@H]2OCC(=O)O)cc(C(C)(C)C)c1 (single isomer, unassigned) [Example 85]",
    "endpoint": "IC50",
    "recorded_result": 2.5
  },
  {
    "compound": "CC(C)(C)c1cc(S[C@H]2CCC[C@H]2OCC(=O)O)cc(C(C)(C)C)c1 (relative stereo) [Example 77]",
    "endpoint": "IC50",
    "recorded_result": 5.16
  },
  {
    "compound": "CC(C)(C)c1ccc(S[C@H]2CCC[C@H]2OCC(=O)O)c(C(C)(C)C)c1 (racemic) [Example 80]",
    "endpoint": "IC50",
    "recorded_result": 0.937
  },
  {
    "compound": "CC(C)(C)c1ccc(S[C@@H]2CCC[C@H]2OCC(=O)O)c(C(C)(C)C)c1 (racemic) [Example 81]",
    "endpoint": "IC50",
    "recorded_result": 1.43
  },
  {
    "compound": "CC(C)(C)c1cc(S[C@H]2CCCC[C@H]2OCC(=O)O)cc(C(C)(C)C)c1 (racemic) [Example 72]",
    "endpoint": "IC50",
    "recorded_result": 4.11
  }
]

IN: Given the entry CC(C)(C)c1ccc(S[C@@H]2CCC[C@H]2OCC(=O)O)c(C(C)(C)C)c1 (single isomer, unassigned) [Example 93] , report its measured IC50.
OUT: 7.66

IN: Same read-out for CC(C)(C)c1ccc(S[C@@H]2CCC[C@H]2OCC(=O)O)c(C(C)(C)C)c1 (single isomer, unassigned) [Example 92] ?
OUT: 3.88

IN: Let us now turn to CC(C)(C)c1ccc(S[C@H]2CCC[C@H]2OCC(=O)O)c(C(C)(C)C)c1 (single isomer, unassigned) [Example 97]
OUT: 2

IN: What about this compound? CC(C)(C)c1cc(S[C@@H]2CCCC[C@H]2OCC(=O)O)cc(C(C)(C)C)c1 (single isomer, unassigned) [Example 89]
OUT: 3.4
